Experiment Notes: protein stability index of a GFP-peptide fusion (yeast GPS) (PSI 1-4); higher = more stable; sorted into four equal gates, so the index is relative within each strain
Assay Setup: san1∆
Metric Name: protein stability index
Reply with just the number.

Recorded protein stability index, per entry:
1) NKFHKSIREDILECDLL [SIR2]    3
2) NMYTSTQKTELEIDNKD [SIR4]    3.04
3) VHDKVLEDMVFPTEIVG [RPS7B]    2.56
4) NKIMTNQINSFWSLHSS [NUT1]    2.06
5) TNQDGLKFVKVRVRTTK [RPB2]    3.3

Read the next record carefully.
## Input Quick one: protein stability index of DDGDDEDLLECLDRCKE [MTR3] ?
## Output 2.87

* * *

Experiment Notes: protein stability index of a GFP-peptide fusion (yeast GPS) (PSI 1-4); higher = more stable; sorted into four equal gates, so the index is relative within each strain
Assay Setup: pdr5∆
Measured protein stability index accompanies every entry in the list below.

1. LFIGLFTRPLFVLLEIE [YCS4]    1.98
2. PEYFESPLQSSKSKQSF [YMR129W/POM152]    2.8
3. KRVPNPNFLGNCNIKDF [SWP82]    2.36
4. ASLHSKELTRIPGEEVE [MED4]    3.29
5. ARENAPSIIFIDEVDSI [RPT3]    2.46

## Input Quick one: protein stability index of LPDPKPLPLDLNVQVWH [ITC1] ?
## Output 2.72

## Input Quick one: protein stability index of KLSDNISICMILCGIQE [YDL116W/NUP84] ?
## Output 1.86

* * *

Measured protein stability index accompanies every entry in the list below.
Experiment Notes: protein stability index of a GFP-peptide fusion (yeast GPS) (PSI 1-4); higher = more stable; sorted into four equal gates, so the index is relative within each strain
Assay Setup: doa10∆
Reply with just the number.

1. KVISEILTKEVQGSTLA [RPS1A]    2.29
2. SATFLRIVGSELIQKYL [RPT2]    1.41
3. PQKPVPLNVLQDQYKEG [SNF2]    3.01
4. DLSLLGYCDDIAAMVAQ [SIR2]    2.56
5. KQANNFLWPFKLSNPSG [RPL7A]    2.69
6. TNELWARLAILKERAKN [YGR119C/NUP57]    3.26
7. ANVVDITNDWEQPCVDI [YJR042W/NUP85]    3.3
8. LLREYDILSQILYGLVD [YJL039C/NUP192]    2.49
9. NELPDIEALYDDDTFSD [RPN2]    3.12
10. NYELEKIADNISKDENE [YDL116W/NUP84]    3.03

## Input Quick one: protein stability index of QQMQPPNSSANNNPLQQ [GAL11] ?
## Output 3.02

## Input Quick one: protein stability index of DSIYTKPVKVALIFIFF [YJL039C/NUP192] ?
## Output 1.69

## Input Quick one: protein stability index of DDFFKELAKEAKKSTTI [ESC2] ?
## Output 3.17

## Input Quick one: protein stability index of NNFIVERVQSDENKDDE [SRP68] ?
## Output 3.52

## Input Quick one: protein stability index of ITFHPKIRARSITLQGD [SMC2] ?
## Output 2.48

## Input Quick one: protein stability index of VTFSPTGRLFQVEYALE [PRE5] ?
## Output 3.28

## Input Quick one: protein stability index of HELSRAELEELEEFEFK [SMD2] ?
## Output 3.26

## Input Quick one: protein stability index of NILSNKPGQNNRQQKKR [RRP6] ?
## Output 2.73

## Input Quick one: protein stability index of IFTDFLPSSNGSSRIIA [RRP42] ?
## Output 3.15

## Input Quick one: protein stability index of KTMKTFVIHIQEKNFQT [RPB5] ?
## Output 2.05

## Input Quick one: protein stability index of DIKDFADKVYTKENLEV [QCR2] ?
## Output 3.34

## Input Quick one: protein stability index of IYVHVRRSTPFSKIAEY [ESC2] ?
## Output 2.16

* * *

Experiment Notes: protein stability index of a GFP-peptide fusion (yeast GPS) (PSI 1-4); higher = more stable; sorted into four equal gates, so the index is relative within each strain
Assay Setup: ubr1∆
Please mark fulfilled if the recorded protein stability index is equal to or greater than 3, and not fulfilled if it falls below.

Use the examples below as a reference point.
1) KYLKKRKIGISIDDHPY [RPC31]    not fulfilled
2) YAVKAVENGTTSIGIKC [PRE10]    not fulfilled
3) KNGLGLNFSTTAPANTT [MED2]    not fulfilled
4) HDAPRGLFPFESYKPSV [SWI3]    fulfilled
5) GIKVSLLGIFDDIFIPQ [RPC25]    not fulfilled

## Input In plain terms: is recorded protein stability index at least 3 for HTQDIIGGMRVDENGDP [RET1] ?
## Output fulfilled

## Input In plain terms: is recorded protein stability index at least 3 for LSSDEKRELLKRYRLKE [RPB5] ?
## Output fulfilled

* * *

Measured protein stability index accompanies every entry in the list below.
Experiment Notes: protein stability index of a GFP-peptide fusion (yeast GPS) (PSI 1-4); higher = more stable; sorted into four equal gates, so the index is relative within each strain
Assay Setup: san1∆

## Input Quick one: protein stability index of VHNTNSFIISSLDTLEL [NUT1] ?
## Output 1.99

## Input Quick one: protein stability index of LQVGDVVSTTAVIESVV [FAS1] ?
## Output 2.04

## Input Quick one: protein stability index of KRVPNPNFLGNCNIKDF [SWP82] ?
## Output 2

## Input Quick one: protein stability index of NLHALSMSLQSKNLGEI [SWI1] ?
## Output 2.04

* * *

Experiment Notes: protein stability index of a GFP-peptide fusion (yeast GPS) (PSI 1-4); higher = more stable; sorted into four equal gates, so the index is relative within each strain
Assay Setup: pdr5∆
Measured protein stability index accompanies every entry in the list below.
Reply with just the number.

1) LYQLFKTCIQGINSPLS [YJL039C/NUP192]    2.05
2) TVTNSKFRSSILRKSFD [RPN2]    3.07
3) MEDIEKIKPYVRSFSKA [LRP1]    3
4) ETDGKHGKRRSQVVETH [YMR129W/POM152]    2.93
5) NGTTVWGTLQSVSPQMN [SMD1]    3.01

## Input Quick one: protein stability index of KETQQYELEFDTPTSGK [BRR2] ?
## Output 2.98

## Input Quick one: protein stability index of DEMYELTDPMTVMFFYH [DIB1] ?
## Output 3.01

## Input Quick one: protein stability index of RGTDIDRINYTETALMN [SRB5] ?
## Output 2.98

## Input Quick one: protein stability index of LNRIINHMLIDSLNQLE [RGR1] ?
## Output 2.96

## Input Quick one: protein stability index of NNVTSNPSEFTPNMVNS [SSN2] ?
## Output 3.03

## Input Quick one: protein stability index of VVVVLEEPSASIMVELK [SIR3] ?
## Output 2.99

## Input Quick one: protein stability index of LPLLILENSSRSPRVVT [NUT1] ?
## Output 2

* * *

Experiment Notes: protein stability index of a GFP-peptide fusion (yeast GPS) (PSI 1-4); higher = more stable; sorted into four equal gates, so the index is relative within each strain
Assay Setup: pdr5∆
Metric Name: protein stability index
Reply with just the number.

Recorded protein stability index, per entry:
1. AIPNPEDVVAISSRTYG [RPS0B]    3.07
2. SQEREFSLLVKAEIPPE [SIN4]    2.98
3. VIRMVVLTAAGVERLIF [PRE3]    2.99
4. TTTATPHANPITHAHSL [PGD1]    3.01
5. DDVKNILNAKYTKETYQ [RPN6]    2.99

## Input Quick one: protein stability index of TVENPLRNWEELNIIPR [PRP28] ?
## Output 1.9

## Input Quick one: protein stability index of EIVNMVPSHVPQVLINR [SIR2] ?
## Output 2.93

* * *

Experiment Notes: protein stability index of a GFP-peptide fusion (yeast GPS) (PSI 1-4); higher = more stable; sorted into four equal gates, so the index is relative within each strain
Assay Setup: doa10∆
Measured protein stability index accompanies every entry in the list below.
Reply with just the number.

Recorded protein stability index, per entry:
1. GQSTILVGSEIYEKLKN [CDC53]    2.67
2. DLYEQIGIDPPRGVLLY [RPT3]    2.6
3. PFSYLIDETMMDKPLNF [SRB5]    2.88
4. GNNVQENELVITSIPKP [RMP1]    3.42
5. IQVAAFIYGMSAKDHPK [PRP8]    3.24
6. FVHSVKKFLRVRIFTKI [SRB4]    2.21

## Input Quick one: protein stability index of QFSYVDSSMTTVQENEL [AAR2] ?
## Output 2.62

## Input Quick one: protein stability index of TLGNALRYVIMKNPDVE [RPC19] ?
## Output 2.93

## Input Quick one: protein stability index of YSLASVTLKGAKALESL [POP1] ?
## Output 2.78

## Input Quick one: protein stability index of FDDIFQVSEVDPGRYNK [RPB8] ?
## Output 3.06

## Input Quick one: protein stability index of DRLILDLKLPPMDAYLK [SNU114] ?
## Output 3.5

## Input Quick one: protein stability index of MKKKLELISYRNESLKN [SRB8] ?
## Output 2.96

## Input Quick one: protein stability index of GSQIKFIVVPDLLKNAP [SMD3] ?
## Output 2.05

## Input Quick one: protein stability index of FSSSVSLSYMAFPNASK [RRP40] ?
## Output 1.65

## Input Quick one: protein stability index of KSTASTAAANTEKLSNG [YOR098C/NUP1] ?
## Output 2.91

## Input Quick one: protein stability index of PFKGEVVDGTVVSCSQH [RPB7] ?
## Output 3.04

## Input Quick one: protein stability index of SFQKIPLSRINENENFG [YML103C/NUP188] ?
## Output 2.88

## Input Quick one: protein stability index of GNYSHLMEKNRIRKLTG [REC8] ?
## Output 1.58

## Input Quick one: protein stability index of TPANNGENAAEKPDNSN [SNF2] ?
## Output 1.89
